method.summary: inhibition of endothelial tube formation, primary screen, imaging, VEGF stimulated, CD31 staining, tube area, NPC library (AID 1117340)
experimental.parameters: VEGF-stimulated ADSC/ECFC co-culture, at 10 µM, stronger effect = higher value
measured.metric: tube area decrease (%)
Give the value, in units of %, as a plain number.

Please review the following examples before continuing.
compound.structure.string: CCCCCCOC(=O)NC(=N)c1ccc(NCc2nc3cc(C(=O)N(CCC(=O)OCC)c4ccccn4)ccc3n2C)cc1
unit.of.measurement: %
tube area decrease: -1.4

compound.structure.string: Cc1ccc(=O)n(-c2ccccc2)c1
unit.of.measurement: %
tube area decrease: 13.3

Now take the following compound into account.
Task item: # query: tube area decrease of entry `C1COC(NC(C2CC2)C2CC2)=N1`
Reply: -7.6
